Molecular target: E. coli fabI (Escherichia coli)
Construct: made in house; host or cells: E. coli BL21(DE3)
Sequence (P0AEK4 whole entry): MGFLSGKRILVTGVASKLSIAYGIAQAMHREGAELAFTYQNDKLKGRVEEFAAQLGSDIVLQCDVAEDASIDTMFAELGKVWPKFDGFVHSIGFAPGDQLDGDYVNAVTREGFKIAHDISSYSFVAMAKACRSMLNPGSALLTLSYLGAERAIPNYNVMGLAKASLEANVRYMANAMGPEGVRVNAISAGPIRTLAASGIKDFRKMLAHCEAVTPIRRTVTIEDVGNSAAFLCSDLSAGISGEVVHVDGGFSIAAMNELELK
Assay: fabI kinetic assay (NADH absorption at 340 nm, crotonoyl-CoA substrate)
Assay type: biochemical
Listed compounds paired with reported IC50

compound: N#Cc1c(-c2cccs2)cc(-c2cccs2)nc1SCc1cccc(C(=O)O)c1 [G]
assayedTarget: E. coli fabI (Escherichia coli)
IC50 [µM]: 6

compound: COc1ccc(-c2cc(-c3ccco3)c(C#N)c(SCc3ccc(C(=O)O)cc3)n2)cc1 [I]
assayedTarget: E. coli fabI (Escherichia coli)
IC50 [µM]: 25

compound: N#Cc1c(-c2cccs2)cc(-c2cccs2)nc1SCCc1ccc(C(=O)O)cc1 [E]
assayedTarget: E. coli fabI (Escherichia coli)
IC50 [µM]: 3

compound: COc1ccc(NC(=O)CSc2nc(-c3cccs3)cc(-c3ccc(F)cc3)c2C#N)cc1OC [D]
assayedTarget: E. coli fabI (Escherichia coli)
IC50 [µM]: 9.2

compound: CC(Sc1nc(-c2cccs2)cc(-c2cccs2)c1C#N)c1ccc(C(=O)O)cc1 (stereo not drawn) [F]
assayedTarget: E. coli fabI (Escherichia coli)
IC50 [µM]: 3

compound: N#Cc1c(-c2cccs2)cc(-c2cccs2)nc1SC(C(=O)O)c1ccccc1 (stereo not drawn) [Compound C]
assayedTarget: E. coli fabI (Escherichia coli)
IC50 [µM]: 12.3

Data origin: patent US20070027190A1
